The reported numbers originate from patent US12398154B2.

Below, each entry is listed with its recorded IC50.
Molecular target: KRas G12R (Homo sapiens, UniProt P01116, G12R);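 note: TR-FRET displacement assay of compound binding to KRas, read after one hour at room temperature, potency from a four-parameter fit of percent-of-control values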
Sequence (P01116 1-169 isoform P01116-2 G12R): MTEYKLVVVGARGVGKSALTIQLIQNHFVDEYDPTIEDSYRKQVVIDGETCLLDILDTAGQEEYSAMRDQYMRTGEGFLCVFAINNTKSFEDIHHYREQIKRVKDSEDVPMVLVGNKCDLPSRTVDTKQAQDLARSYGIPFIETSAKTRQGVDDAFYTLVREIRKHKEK
Experiment: biochemical
A number alone suffices; assume nM.

// worked examples, IC50 included
{"Compound": "Fc1c(-c2cccc3cccc(F)c23)ncc2c(N3CCCCCCC3)nc(OCC34CCCN3CCC4)nc12", "IC50 [nM]": 6390}
{"Compound": "CCc1c(F)ccc2cc(O)cc(-c3ncc4c(N(C)CC5CC(=O)N5)nc(OC[C@@]56CCCN5C[C@H](F)C6)nc4c3F)c12 (stereo partly shown)", "IC50 [nM]": 32}
{"Compound": "O=C1NC(=O)C2(CCCN(c3nc(OCC45CCCN4CCC5)nc4c(F)c(-c5cccc6cccc(F)c56)ncc34)C2)N1 (stereo not shown)", "IC50 [nM]": 81}
{"Compound": "Fc1c(-c2cccc3cccc(F)c23)ncc2c(N3CCCC4(COC4)C3)nc(OCC34CCCN3CCC4)nc12", "IC50 [nM]": 8670}
{"Compound": "CCc1c(F)ccc2cc(O)cc(-c3ncc4c(N5CC[C@@H](C)[C@@H](O)C5)nc(OC[C@@]56CCCN5C[C@H](F)C6)nc4c3F)c12", "IC50 [nM]": 18}

Query block: Bench note: what IC50 did OCC1COCCN(c2nc(OC[C@@]34CCCN3C[C@H](F)C4)nc3c(F)c(-c4cc(O)cc5ccc(F)c(Cl)c45)ncc23)C1 (stereo partly shown) show?
Result block: 4

Query block: Ok, now CCc1c(F)ccc2cc(O)cc(-c3ncc4c(N5CCCC6(COC(=O)N6)C5)nc(OC[C@@]56CCCN5C[C@H](F)C6)nc4c3F)c12 (stereo partly shown)
Result block: 5

Query block: Ok, now N#Cc1cccnc1N1CCN(c2nc(OCC34CCCN3CCC4)nc3c(F)c(-c4cccc5cccc(F)c45)ncc23)CC1
Result block: 1620

Query block: Ok, now Fc1c(-c2cccc3cccc(F)c23)ncc2c(NCc3cnn4c3OCCC4)nc(OCC34CCCN3CCC4)nc12
Result block: 31200
